Every entry's value here was drawn from patent US20170101472A1.

# MEASUREMENT TARGET: T1, recombinant human LAG3 expressed with a C-terminal myc-myc-hexahistidine tag (human, UniProt P18627 29-450)
# T1 construct: also called hLAG3-mmh; hLAG3.mmh
# T1 sequence (P18627 other isoform, or with tags, fused parts or gaps limits assumed): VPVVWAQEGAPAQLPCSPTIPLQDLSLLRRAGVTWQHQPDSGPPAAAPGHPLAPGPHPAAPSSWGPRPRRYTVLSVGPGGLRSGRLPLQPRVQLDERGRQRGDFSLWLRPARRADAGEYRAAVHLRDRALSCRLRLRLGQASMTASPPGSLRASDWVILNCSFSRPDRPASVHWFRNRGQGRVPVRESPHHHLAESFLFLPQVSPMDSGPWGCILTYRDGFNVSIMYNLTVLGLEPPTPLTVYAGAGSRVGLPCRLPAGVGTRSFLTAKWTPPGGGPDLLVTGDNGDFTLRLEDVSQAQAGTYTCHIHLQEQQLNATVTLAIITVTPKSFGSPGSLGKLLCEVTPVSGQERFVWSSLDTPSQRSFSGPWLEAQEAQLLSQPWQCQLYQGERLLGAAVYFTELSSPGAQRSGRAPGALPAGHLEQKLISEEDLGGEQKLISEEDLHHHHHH
# PROTOCOL DESCRIPTION: SPR, mAb captured, 25 C
ASSAY ENDPOINT: pKd
Would you please state pKd, meaning minus log10 of the concentration in mol/L, as a bare number?

H4H14813N (antibody, human IgG4, V domains shown, H4H = human IgG4 Fc with S108P hinge mutation) VH: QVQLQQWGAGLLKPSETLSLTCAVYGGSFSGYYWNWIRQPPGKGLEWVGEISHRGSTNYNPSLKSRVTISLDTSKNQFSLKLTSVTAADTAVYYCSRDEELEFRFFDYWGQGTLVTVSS VL: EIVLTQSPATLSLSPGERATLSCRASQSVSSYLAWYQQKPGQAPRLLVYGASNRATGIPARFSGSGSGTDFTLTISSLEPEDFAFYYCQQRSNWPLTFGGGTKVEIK	9.67
H4H17823P (antibody, human IgG4, V domains shown, H4H = human IgG4 Fc with S108P hinge mutation) VH: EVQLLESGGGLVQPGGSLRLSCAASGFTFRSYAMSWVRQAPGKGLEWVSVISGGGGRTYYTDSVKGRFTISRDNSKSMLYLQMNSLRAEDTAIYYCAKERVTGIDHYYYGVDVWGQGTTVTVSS VL: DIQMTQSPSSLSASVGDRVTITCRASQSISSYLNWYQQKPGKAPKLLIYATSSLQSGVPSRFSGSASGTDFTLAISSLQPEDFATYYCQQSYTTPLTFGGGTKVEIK	9.37

Here's the next entry for you.
Supply recorded pKd for H4sH15479P (antibody, V domains shown) VH: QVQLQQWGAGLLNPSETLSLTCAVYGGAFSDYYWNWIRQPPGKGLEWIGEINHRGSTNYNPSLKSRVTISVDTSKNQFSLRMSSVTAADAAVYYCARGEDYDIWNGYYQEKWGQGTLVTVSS VL: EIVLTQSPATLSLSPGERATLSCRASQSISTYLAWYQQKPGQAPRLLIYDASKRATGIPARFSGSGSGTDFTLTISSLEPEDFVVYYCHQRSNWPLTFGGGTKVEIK here.
10.31
